Entries below carry reported IC50 on p33^cdk2 (cyclin E) (Homo sapiens, UniProt P24941).

See these solved cases before continuing.
- CC(C)n1nnc2c(NCc3ccccc3O)nc(NC3CCC(O)CC3)nc21 (stereo not shown): > 10 µM
- CC(C)n1nnc2c(NCc3ccccc3O)nc(NC3CCC(N)CC3)nc21 (stereo not shown): 27.7 µM
- CC(C)n1nnc2c(NCc3cccc(O)c3)nc(NC3CCC(N)CC3)nc21 (stereo not shown): > 10 µM

Read the next record carefully.
Item CC(C)n1nnc2c(NCc3ccc(O)cc3)nc(NC3CCC(N)CC3)nc21 (stereo not shown) with p33^cdk2 (cyclin E) (Homo sapiens, UniProt P24941) - IC50? > 10 µM

---

- system-under-test: IκB-α kinase
- assay-details: IκB-α kinase inhibitory activity, in vitro kinase assay
pIC50: −log10 of the molar value.
property-name: pIC50

See these solved cases before continuing.
• CC[C@H](CO)Nc1nc(NCc2ccc(O)c(O)c2)c2nnn(C(C)C)c2n1 = < 4.00
• COc1cccc(CNc2nc(N[C@@H](CO)C(C)C)nc3c2nnn3C(C)C)c1O = < 4.00

For the molecule shown here, CC[C@H](CO)Nc1nc(NCc2ccccc2)c2nnn(C)c2n1 , give the reported pIC50. < 4.00

---

- system-under-test: p34^cdc2/cyclin B (CDC2) (Homo sapiens, UniProt P06493)
- Sequence (P06493 whole entry, species assumed): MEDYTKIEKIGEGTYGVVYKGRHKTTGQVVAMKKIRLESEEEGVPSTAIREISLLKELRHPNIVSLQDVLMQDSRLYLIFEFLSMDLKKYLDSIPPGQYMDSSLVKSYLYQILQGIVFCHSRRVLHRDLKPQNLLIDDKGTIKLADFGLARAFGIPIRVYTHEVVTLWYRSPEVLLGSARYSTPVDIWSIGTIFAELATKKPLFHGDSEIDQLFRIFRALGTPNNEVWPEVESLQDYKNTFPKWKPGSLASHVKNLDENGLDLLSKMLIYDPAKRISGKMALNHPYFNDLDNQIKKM
- Sequence (P14635 whole entry partner, species assumed): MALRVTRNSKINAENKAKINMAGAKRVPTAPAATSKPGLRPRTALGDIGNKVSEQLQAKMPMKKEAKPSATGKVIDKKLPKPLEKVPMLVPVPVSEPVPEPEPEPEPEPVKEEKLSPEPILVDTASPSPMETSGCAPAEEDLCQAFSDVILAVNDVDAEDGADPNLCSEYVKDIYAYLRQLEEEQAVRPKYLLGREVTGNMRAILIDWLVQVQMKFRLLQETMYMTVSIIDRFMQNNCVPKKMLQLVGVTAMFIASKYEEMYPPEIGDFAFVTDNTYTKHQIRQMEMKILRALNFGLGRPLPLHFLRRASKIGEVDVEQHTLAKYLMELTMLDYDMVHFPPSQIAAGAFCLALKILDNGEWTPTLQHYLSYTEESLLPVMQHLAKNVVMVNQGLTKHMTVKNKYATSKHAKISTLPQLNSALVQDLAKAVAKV
- assay-details: CDK inhibition assay, p34cdc2/cyclin B kinase, histone H1 phosphorylation
property-name: IC50 (µM)

See these solved cases before continuing.
- CC(C)[C@H](CO)Nc1nc(Nc2cccc(Cl)c2)c2nnn(C(C)C)c2n1: 20
- CC[C@H](CO)Nc1nc(NCc2ccccc2O)c2nnn(C(C)C)c2n1: 14
- CC[C@H](CO)Nc1nc(Nc2ccccc2)c2nnn(C(C)C)c2n1: 29

[1] CC(C)[C@H](CO)Nc1nc(NCc2ccccc2)c2nnn(C(C)C)c2n1
[2] CC(C)[C@H](CO)Nc1nc(Nc2ccc(Br)cc2)c2nnn(C(C)C)c2n1
I need your help: which of the pair 1 , 2 has higher IC50? Lab log: write the label of the selected item as the result. 2
